The values you see were collected from patent US20220185793A1.

tested on: BMI1 (EBV target gene); assay: EBV target gene downregulation (qPCR) in LCL070903 cells: BMI1; format: cell-based, human; settings: Homo sapiens, 48 hours, mRNA by qPCR, Table 6
Form field: inhibition at 10 µM (one value per entry).
MEASUREMENT NAME: inhibition at 10 µM

compound="CC(C)(C)c1ccc(Oc2ccc(N)cn2)cc1 [6-(4-tert-Butylphenoxy)pyridin-3-amine, reference compound]" measurement_name="inhibition at 10 µM" recorded_result="< 0%"
compound=Cc1ccccc1-c1ccc(Oc2ccc(NCc3cccnc3)cc2)cc1C measurement_name="inhibition at 10 µM" recorded_result=61%
compound=c1cncc(CNc2ccc(Oc3ccc(-c4cncs4)cc3)nc2)c1 measurement_name="inhibition at 10 µM" recorded_result=66%
compound=CC(C)(C)c1ccc(Oc2ccc(NCc3cccnc3)cc2F)cc1 measurement_name="inhibition at 10 µM" recorded_result=24%
compound="COC(c1ccc(NCc2cccnc2)cc1)c1ccc(-c2ccc(F)cc2)cc1 (stereo not shown)" measurement_name="inhibition at 10 µM" recorded_result=48%
compound=Fc1cc(NCc2cccnc2)ccc1Oc1ccc(-c2cccnc2)cc1 measurement_name="inhibition at 10 µM" recorded_result=53%
compound=Fc1ccc(-c2ccc(Oc3ccc(NCc4cccnc4)cn3)cc2)cc1 measurement_name="inhibition at 10 µM" recorded_result=61%
compound=Cc1cc(Oc2ccc(-c3ccccc3)cc2)ncc1NCc1cccnc1 measurement_name="inhibition at 10 µM" recorded_result=18%
compound=c1ccc(-c2ccc(Oc3ccc(NCc4cccnc4)cn3)cn2)cc1 measurement_name="inhibition at 10 µM" recorded_result=51%
compound="OC(c1ccc(NCc2cccnc2)cc1)c1ccc(-c2ccc(F)cc2)cc1 (stereo not shown)" measurement_name="inhibition at 10 µM" recorded_result=54%
compound=Fc1cc(NCc2cccnc2)ccc1Oc1ccc(C2CCCCC2)cc1 measurement_name="inhibition at 10 µM" recorded_result=56%
compound=Fc1ccc(-c2ccc(Cc3ccc(NCc4cccnc4)cc3)cc2)cc1 measurement_name="inhibition at 10 µM" recorded_result=45%
compound=c1ccc(-c2ccc(Oc3ccc(NCc4cccnc4)cn3)cc2)cc1 measurement_name="inhibition at 10 µM" recorded_result=44%
compound=Fc1cc(NCc2cccnc2)ccc1Oc1ccc(-c2ccccn2)cc1 measurement_name="inhibition at 10 µM" recorded_result=46%
compound=Cc1ccccc1-c1ccc(Oc2ccc(NCc3cccnc3)cn2)cc1C measurement_name="inhibition at 10 µM" recorded_result=72%
compound=Cc1nc(Oc2ccc(-c3ccccc3)cc2)ccc1NCc1cccnc1 measurement_name="inhibition at 10 µM" recorded_result=39%
